- tested_target: T1, cynomolgus soluble urokinase plasminogen activator receptor (suPAR) (cynomolgus, UniProt Q9GK78 23-303, limits assumed)
- T1 construct: Column head says only 'cynomologus'; also called cynomolgus suPAR; cynomolgus uPAR
- T1 sequence (Q9GK78 23-303 limits assumed): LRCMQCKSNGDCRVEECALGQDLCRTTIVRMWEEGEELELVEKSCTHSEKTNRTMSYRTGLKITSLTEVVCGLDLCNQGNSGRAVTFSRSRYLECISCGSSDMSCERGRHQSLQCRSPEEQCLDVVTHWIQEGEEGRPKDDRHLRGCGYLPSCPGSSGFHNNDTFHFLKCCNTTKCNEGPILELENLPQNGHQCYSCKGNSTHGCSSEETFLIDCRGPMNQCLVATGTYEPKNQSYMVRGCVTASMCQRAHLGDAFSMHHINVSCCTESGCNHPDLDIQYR
- assay_procedure: BLI (Octet) off-rate screen of scFv clones
property_name: koff (s⁻¹)
Numbers only, in s⁻¹.

{"columns": ["binder", "output_unit", "koff"],
 "data": [
  ["suPAR_DB02_E09 (scFv, V domains shown, scFv clone from phage display) VH: QVQLVQSGAEVKKPGASVKVSCKASGFNIKDYYIHWVRQAPGQGLEWMGWIDPNSGGTNYAQKFQGRVTMTRDTSTSTVYMELSSLRSEDTAVYYCARGYDVDWFVYWGQGTLVTVSS VL: DIQMTQSPSSLSASVGDRVTITCSARSSVSYMYWYQQKPGKAPKLLIYRTSNLASGVPSRFSGSGSGTDFTLTISSLQPEDFATYYCQQYHSYPPTFGGGTKVEIK", "s⁻¹", 0.00021]
]}

# ---- query binder ----
Using the record for suPAR_DB02_H01 (scFv, V domains shown, scFv clone from phage display) VH: QVQLVQSGAEVKKPGASVKVSCKASGYTFTGQYIHWVRQAPGQGLEWMGWIDHSGGSTIYDQKFQGRVTMTRDTSTSTVYMELSSLRSEDTAVYYCAGGYDVDWFVYWGQGTLVTVSS VL: DIQMTQSPSSLSASVGDRVTITCSARSSVSYMYWYQQKPGKAPKLLIYRTSSLASGVPSRFSGSGSGTDFTLTISSLQPEDFATYYCQQYHSYPPTFGGGTKVEIK , report its koff.
0.000218
